Taken from patent US10526316B2.

Parameter pKd, tested on kinase enzymes (Homo sapiens), listed per item.
Answers are plain numbers, as −log10 of the molar value.

Here are 2 compounds together with their reported answers.
CC(Oc1cccc(F)c1)c1cc(C(=O)N(C)C)cc2ncc(N3CCOCC3)nc12 (single isomer, unassigned) [Compound 339b]
5.66
O=C(NCCCO)c1cc(C2CCCN2c2cc(F)cc(F)c2)c2nc(N3CCOCC3)cnc2c1 (stereo not shown) [Compound 66]
6.17

Please examine the following record next.
Challenge: So what does the record say about pKd for Cc1ccc(NC(C)c2cc(C(=O)NCCO)cc3ncc(N4CCOCC4)nc23)cc1F (single isomer, unassigned) [Compound 295b] ?
Response given: 5.34

----------
Test system: Akt phosphorylated at Ser473 in PC-3 cells
Assay Procedure: Cellular assay: phosphorylation of Akt at Ser473 in PC-3 cells (MSD ELISA)
Type: cell-based
Condition Context: PC-3 cells, 60 min compound incubation, MSD ELISA; read-out: IC50 pAkt_S473
Reported Property: IC50

Example compounds with recorded IC50:
CC(Nc1ccc(F)c(F)c1)c1cc(C(=O)N(C)CCN(C)C)cc2ncc(N3CCOCC3)nc12 (single isomer, unassigned) [Compound 349a]
4 nM
CC(Oc1cc(F)cc(F)c1)c1cc(C(=O)N(C)C)cc2ncc(N3CCOCC3)nc12 (single isomer, unassigned) [Compound 6]
> 513 nM

Challenge: Bench note: what IC50 did CC(Oc1ccc(Cl)c(F)c1)c1cc(C(=O)N(C)CCN(C)C)cc2ncc(N3CCOCC3)nc12 (single isomer, unassigned) [Compound 313b] show?
Response given: > 513 nM

----------
Tested Target: PI3Kδ (Homo sapiens, UniProt O00329)
Sequence (O00329 1-1044): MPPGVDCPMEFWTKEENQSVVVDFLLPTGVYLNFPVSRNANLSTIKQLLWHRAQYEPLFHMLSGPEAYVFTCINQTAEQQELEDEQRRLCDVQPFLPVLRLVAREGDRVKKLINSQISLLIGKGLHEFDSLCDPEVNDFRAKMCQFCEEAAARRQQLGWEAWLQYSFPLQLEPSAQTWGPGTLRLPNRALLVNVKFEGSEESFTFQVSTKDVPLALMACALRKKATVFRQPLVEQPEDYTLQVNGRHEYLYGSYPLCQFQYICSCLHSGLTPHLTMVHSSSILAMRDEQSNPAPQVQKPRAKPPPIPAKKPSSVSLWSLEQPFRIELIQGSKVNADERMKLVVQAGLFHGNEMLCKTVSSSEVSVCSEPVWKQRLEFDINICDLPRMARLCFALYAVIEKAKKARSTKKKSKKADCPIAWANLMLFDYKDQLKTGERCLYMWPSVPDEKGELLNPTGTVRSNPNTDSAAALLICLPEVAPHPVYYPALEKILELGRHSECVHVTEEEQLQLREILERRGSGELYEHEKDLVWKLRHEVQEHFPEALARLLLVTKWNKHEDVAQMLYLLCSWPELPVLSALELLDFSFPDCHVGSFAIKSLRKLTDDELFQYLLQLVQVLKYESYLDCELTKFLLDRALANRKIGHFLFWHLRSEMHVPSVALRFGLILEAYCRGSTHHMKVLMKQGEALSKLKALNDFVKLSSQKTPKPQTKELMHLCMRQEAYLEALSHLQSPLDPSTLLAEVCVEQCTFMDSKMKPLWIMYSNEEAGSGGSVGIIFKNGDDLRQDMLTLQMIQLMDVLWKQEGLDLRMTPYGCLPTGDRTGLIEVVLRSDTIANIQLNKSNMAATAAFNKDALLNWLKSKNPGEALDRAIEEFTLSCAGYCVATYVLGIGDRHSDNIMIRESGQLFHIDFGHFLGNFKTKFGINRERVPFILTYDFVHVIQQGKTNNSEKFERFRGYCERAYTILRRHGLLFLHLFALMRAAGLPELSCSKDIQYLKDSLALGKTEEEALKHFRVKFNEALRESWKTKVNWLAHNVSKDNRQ
Kindly supply the reported pKd values for the records listed here.
Numbers only, as −log10 of the molar value.

Example entries begin here.
CNCCNC(=O)c1cc(C(C)Oc2ccc(Cl)c(F)c2)c2nc(N3CCOCC3)cnc2c1 (single isomer, unassigned) [Compound 380b]
5.92
CC(Nc1cc(F)cc(F)c1)c1cc(COCCO)cc2ncc(N3CCOCC3)nc12 (single isomer, unassigned)
4.78
CC(c1cc(C(=O)N(C)C)cc2ncc(N3CCOCC3)nc12)N(C)c1cccc(Cl)c1 (single isomer, unassigned) [Compound 140]
4.80
CC(Nc1ccc(F)c(F)c1)c1cc(C(=O)N(C)C2CCNC2)cc2ncc(N3CCOCC3)nc12 (centres unmarked) [Compound 323b]
6.74
CC(Oc1cccc(F)c1)c1cc(C(=O)N(C)C)cc2ncc(N3CCOCC3)nc12 (single isomer, unassigned) [Compound 339a]
5.68

For the 7 molecules below, give their pKd values.
1. CC(C)NCCNC(=O)c1cc(C(C)Nc2ccc(F)c(F)c2)c2nc(N3CCOCC3)cnc2c1 (centres unmarked) [Compound 364]
2. CC(C)NCc1cc(F)cc(N2CCCC2c2cc(C(=O)N(C)C)cc3ncc(N4CCOCC4)nc23)c1 (centres unmarked)
3. CC(Nc1ccc(F)c(F)c1)c1cc(C(=O)NCC2CCCN2)cc2ncc(N3CCOCC3)nc12 (single isomer, unassigned) [Compound 329a]
4. COC(=O)c1cc(C(C)Oc2ccc(F)c(F)c2)c2nc(N3CCOCC3)cnc2c1 (centres unmarked)
5. CC(Oc1cc(F)cc(F)c1)c1cc(C(=O)N(C)C)cc2ncc(C3=CCOCC3)nc12 (single isomer, unassigned) [Compound 403a]
6. CC(C)NCCNC(=O)c1cc(C(C)Oc2cccc(F)c2)c2nc(N3CCOCC3)cnc2c1 (single isomer, unassigned) [Compound 314b]
7. Cc1cc(F)cc(N2CCCC2c2cc(C(=O)N(C)C)cc3ncc(N4CCOCC4)nc23)c1 (centres unmarked)

Response given:
1: 6.09; 2: 6.03; 3: 7.59; 4: 4.94; 5: 6.48; 6: 6.00; 7: 6.82

Batch request: pKd for each of the following molecules.
1. CC(Nc1ccc(F)c(F)c1)c1cc(C(=O)N2CC[C@@H](O)C2)cc2ncc(N3CCOCC3)nc12 (single isomer, unassigned) [Compound 300a]
2. Fc1cc(F)cc(N2CCCC2c2cncc3ncc(N4CCOCC4)nc23)c1 (centres unmarked) [Compound 23]

Response given:
1: 6.72; 2: 6.48

----------
Here we list molecules with their recorded Kd when tested on kinase enzymes (Homo sapiens).

CC(Oc1cccc(F)c1)c1cc(C(=O)O)cc2ncc(N3CCOCC3)nc12 (single isomer, unassigned) [Compound 257c]
1.66 µM
CN[C@H]1CCN(C(=O)c2cc(C(C)Nc3ccc(F)c(F)c3)c3nc(N4CCOCC4)cnc3c2)C1 (single isomer, unassigned) [Compound 365b]
> 30.2 µM
CN(Cc1cc(F)cc(F)c1)c1cc(C(=O)N2CCNC(C(F)(F)F)C2)cc2ncc(N3CCOCC3)nc12 (single isomer, unassigned) [Compound 319a]
> 30.2 µM
COc1cccc(N2CCCC2c2cc(C(=O)N(C)C)cc3ncc(N4CCOCC4)nc23)c1 (centres unmarked)
> 30.2 µM
CC(Nc1ccc(F)c(F)c1)c1cc(C(=O)NCCO)cc2ncc(N3CCOCC3)nc12 (single isomer, unassigned) [Compound 279a]
21.4 µM

Give measured Kd for every item shown.
1. CC(Nc1ccc(F)c(F)c1)c1cc(C(=O)N(C)C2CCNC2)cc2ncc(N3CCOCC3)nc12 (centres unmarked) [Compound 322b]
2. CN[C@H]1CCN(C(=O)c2cc(C(C)Oc3ccc(F)c(F)c3)c3nc(N4CCOCC4)cnc3c2)C1 (single isomer, unassigned) [Compound 370b]

Response given:
1: > 30.2 µM; 2: > 30.2 µM

Please supply Kd for each of the following items, keeping them in order.
1. Fc1cc(F)cc(N2CCCC2c2cncc3ncc(N4CCOCC4)nc23)c1 (single isomer, unassigned) [Compound 24]
2. O=C(NCCO)c1cc(NCc2cc(F)cc(F)c2)c2nc(N3CCOCC3)cnc2c1
3. COC(=O)c1cc(C(C)Nc2cc(F)cc(Cl)c2)c2nc(N3CCOCC3)cnc2c1 (centres unmarked) [Compound 264]
4. CC(Nc1cc(F)cc(F)c1)c1cc(COCCO)cc2ncc(N3CCOCC3)nc12 (single isomer, unassigned)
5. CC(Oc1ccc(F)c(F)c1)c1cc(C(=O)N2CC[C@H](N(C)C)C2)cc2ncc(N3CCOCC3)nc12 (single isomer, unassigned) [Compound 363b]
6. CC(Oc1cccc(F)c1)c1cc(C(=O)N(C)C)cc2ncc(N3CCOCC3)nc12 (single isomer, unassigned) [Compound 339b]
7. CC(Oc1cc(F)ccc1NCCN)c1cc(C(=O)N(C)C)cc2ncc(N3CCOCC3)nc12 (centres unmarked)

Response given:
["18.6 µM", "12.6 µM", "> 30.2 µM", "> 30.2 µM", "27.5 µM", "6.46 µM", "> 30.2 µM"]
